# koff per record follows
Biological target: T1, human nerve growth factor (human, UniProt P01138 122-241)
T1 construct: Immobilised on CM5 chips for BIAcore, soluble in neuron survival assays; also called human NGF; hNGF
T1 sequence (P01138 122-241 limits assumed): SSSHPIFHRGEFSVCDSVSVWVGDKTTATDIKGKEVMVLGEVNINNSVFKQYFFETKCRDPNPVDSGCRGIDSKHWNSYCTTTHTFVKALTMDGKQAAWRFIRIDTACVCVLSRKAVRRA
Assay: BIAcore SPR screen, Fab over immobilised human NGF
Answer format: numeric, s⁻¹ implied, no suffix.

Binder	Result type	Val
8L2-6D5 (CDR-grafted antibody with framework mutation V71K) (Fab, V domains shown, Fab (human IgG2 CH1 + C-kappa, His tag at heavy chain C terminus); also called 8L2-6D5 Fab; 8L2-6D5 (control)) VH: QVQLQESGPGLVKPSETLSLTCTVSGFSLIGYDINWIRQPPGKGLEWIGMIWGDGTTDYNSALKSRVTISKDTSKNQFSLKLSSVTAADTAVYYCARGGYYYGTSYYFDYWGQGTLVTVS VL: DIQMTQSPSSLSASVGDRVTITCRASQDISNHLNWYQQKPGKAPKLLIYYISRFHSGVPSRFSGSGSGTDFTFTISSLQPEDIATYYCQQSKTLPYTFGQGTKLEIKR	koff	0.001

For the next question, use this binder.
Exam item: Consider the binder light chain library clone L6 (Fab, V domains shown, See note of m8) VH: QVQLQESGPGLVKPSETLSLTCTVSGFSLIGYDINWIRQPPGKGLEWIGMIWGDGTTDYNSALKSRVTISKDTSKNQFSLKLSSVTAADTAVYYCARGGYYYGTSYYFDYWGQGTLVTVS VL: DIQMTQSPSSLSASVGDRVTITCRAFQSISNQLNWYQQKPGKAPKLLIYYASRFHSGVPSRFSGSGSGTDFTFTISSLQPEDIATYYCQQSKTLPYTFGQGTKLEIKR . State its measured koff.
Marked response: 0.00082
